- test-system: CYP3A4 (Homo sapiens)
- Sequence (P08684 2-503 limits assumed): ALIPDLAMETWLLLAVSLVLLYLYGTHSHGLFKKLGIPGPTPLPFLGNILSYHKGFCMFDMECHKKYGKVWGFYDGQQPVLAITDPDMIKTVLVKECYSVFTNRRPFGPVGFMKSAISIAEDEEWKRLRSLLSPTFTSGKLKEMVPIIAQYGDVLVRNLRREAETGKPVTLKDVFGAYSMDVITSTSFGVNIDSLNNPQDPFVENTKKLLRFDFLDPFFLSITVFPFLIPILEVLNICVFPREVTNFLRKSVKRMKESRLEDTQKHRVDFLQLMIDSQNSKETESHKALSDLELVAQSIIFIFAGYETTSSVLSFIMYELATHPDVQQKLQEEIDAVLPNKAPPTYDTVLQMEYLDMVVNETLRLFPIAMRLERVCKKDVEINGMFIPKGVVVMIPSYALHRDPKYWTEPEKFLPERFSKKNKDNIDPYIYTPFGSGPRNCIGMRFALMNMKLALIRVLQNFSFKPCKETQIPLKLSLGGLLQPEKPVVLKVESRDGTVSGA
- assay-details: CYP inhibition assay in pooled HLM, specific substrate testosterone
pIC50: −log10 of the molar value.
property-label: pIC50

[[record]]
compound = "CCCCCc1cc(O)c2c(c1)OC(C)(C)[C@@H]1CCC(C)=C[C@@H]21 [THC (pure), Δ9-tetrahydrocannabinol]"
property_label = "pIC50"
observed_measurement = 4.63


* * *

- test-system: CYP2C9 (Homo sapiens, UniProt P11712)
- Sequence (P11712 whole entry): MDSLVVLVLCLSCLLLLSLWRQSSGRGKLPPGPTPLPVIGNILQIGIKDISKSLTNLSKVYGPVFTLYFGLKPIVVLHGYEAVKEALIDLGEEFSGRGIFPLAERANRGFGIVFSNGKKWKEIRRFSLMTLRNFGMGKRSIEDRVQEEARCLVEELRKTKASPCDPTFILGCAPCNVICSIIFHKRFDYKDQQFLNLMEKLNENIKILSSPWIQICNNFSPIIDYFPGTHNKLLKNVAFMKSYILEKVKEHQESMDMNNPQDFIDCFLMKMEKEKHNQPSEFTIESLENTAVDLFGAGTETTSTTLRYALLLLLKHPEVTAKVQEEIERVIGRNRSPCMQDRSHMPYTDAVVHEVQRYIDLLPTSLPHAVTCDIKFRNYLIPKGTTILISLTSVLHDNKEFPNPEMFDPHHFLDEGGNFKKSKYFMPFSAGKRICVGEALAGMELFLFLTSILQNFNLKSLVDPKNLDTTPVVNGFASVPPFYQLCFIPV
property-label: IC50 (nM)

[[record]]
compound = "CCCCCc1cc(O)c2c(c1)OC(C)(C)[C@@H]1CCC(C)=C[C@@H]21 [THC (pure), Δ9-tetrahydrocannabinol]"
reading_unit = "nM"
observed_measurement = 81


* * *

- test-system: CYP2C9 (Homo sapiens, UniProt P11712)
- assay-details: in vitro
- settings: both, microsomes, pH 7.4
property-label: IC50 at 15 min (µM)

[[record]]
compound = "C=C(C)[C@@H]1CCC(C)=C[C@H]1c1c(O)cc(CCCCC)cc1O"
test_system = "CYP2C9 (Homo sapiens, UniProt P11712)"
property_label = "IC50 at 15 min"
observed_measurement = 47

[[record]]
compound = "CCCCCc1cc(O)c2c(c1)OC(C)(C)[C@@H]1CCC(C)=C[C@@H]21 [THC (pure), Δ9-tetrahydrocannabinol]"
test_system = "CYP2C9 (Homo sapiens, UniProt P11712)"
property_label = "IC50 at 15 min"
observed_measurement = 6.9

